Values from ChEMBL document CHEMBL3867438

Hi there, I'd appreciate the recorded IC50 for every entry that follows.
# MEASUREMENT DESCRIPTION: Cytotoxicity against human MKN28 cells assessed as inhibition of cell proliferation after 48 hrs by MTT assay
# Assay type: functional, cell-based
# TEST PARAMETERS: MKN-28, 48 h

// solved cases for IC50 follow
>>> test_value("CCO[C@H]1O[C@@H]([C@H](O)C(C)(C)O)C[C@H]1[C@@H]1CC[C@]2(C)C3=CC=C4C(C)(C)C(=O)CC[C@]4(C)C3=CC[C@@]12C")
"> 10 µM"
>>> test_value("CO[C@H]1O[C@H](C=C(C)C)C[C@H]1[C@@H]1CC[C@]2(C)C3=CC[C@H]4C(C)(C)[C@@H](O)CC[C@]4(C)[C@H]3CC[C@@]12C")
"8.8 µM"
>>> test_value("CO[C@@H]1O[C@H](C=C(C)C)C[C@H]1[C@@H]1CC[C@]2(C)C3=CC[C@H]4C(C)(C)[C@@H](O)CC[C@]4(C)[C@H]3CC[C@@]12C")
"9.8 µM"

Now take the following molecule into account.
Would you mind telling me what IC50 value was observed for "CCO[C@H]1O[C@H](C=C(C)C)C[C@H]1[C@@H]1CC[C@]2(C)C3=CC[C@H]4C(C)(C)[C@@H](O)CC[C@]4(C)[C@H]3CC[C@@]12C" ? > 10 µM
